Documented SPOT intensity across a set of binders
Target: T1, Lsb4, P32793
T1 sequence (P32793 402-468, looked up): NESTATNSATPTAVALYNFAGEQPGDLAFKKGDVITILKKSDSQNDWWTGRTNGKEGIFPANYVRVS
Test: SPOT array
Details: median of control spots 397
Hey, just send me the number, nothing else.

Task: // SPOT intensity lookup, key: YLTRPLPSTPNEDSR
Result: 598

Task: // SPOT intensity lookup, key: PELAPKREAPKPPAN
Result: 2

Task: // SPOT intensity lookup, key: SHRLWLYAAPKRPKT
Result: 0

Task: // SPOT intensity lookup, key: VATSTSPKLPPRGKQ
Result: 275
